Please provide measured refractive index for the entries that follow.
# protocol: refractive index (Na D-line) (dimensionless)
# particulars: 293.15 K; 101.33 kPa; Liquid; Standard Abbe refractometry
# output: bare number, no unit

## Input Hello, please tell me recorded refractive index for this one: CC(=O)O [acetic acid]
## Output 1.3721

## Input Report refractive index for CC(C)c1ccccc1 [isopropylbenzene]
## Output 1.4913

## Input Determine its reported refractive index: CCC(=O)O [propanoic acid]
## Output 1.3811

## Input Read off the recorded refractive index for O=CO [formic acid]
## Output 1.3711

----------
# protocol: Boiling temperature at pressure P
# particulars: 101.33 kPa; Liquid; Distillation
readout-kind: Boiling temperature at pressure P (°C)
Write it as a number; the unit °C goes unstated.

## Input Recall and state the measured Boiling temperature at pressure P for CC(C)c1ccccc1 .
## Output 152.39

## Input Dear colleague, please send me the reported Boiling temperature at pressure P for O=CO when you can.
## Output 109.90

## Input Please report Boiling temperature at pressure P for the following compound: CCC(=O)O
## Output 141.00

## Input Could you please provide reported Boiling temperature at pressure P for CC(=O)O ? Thanks!
## Output 117.70
